Attribution: the RNAGym collection of RNA variant scans (doi:10.7554/elife.80360)

B1: Hairpin Ribozyme (parent)
chain: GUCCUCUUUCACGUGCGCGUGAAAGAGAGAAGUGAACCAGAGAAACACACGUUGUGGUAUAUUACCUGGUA

Variants of: B1
Assay: self-cleavage, relative activity (ratio to wild type); higher = more cleavage; co-transcriptional
Kindly supply the reported self-cleavage values for the records listed here.
Respond with the number and no other words.

Just so you know, measured self-cleavage for A44C U55C came out at 0.172

Just so you know, measured self-cleavage for G15U A64U came out at 0.139

Just so you know, measured self-cleavage for G56C A61U came out at 0.177

Just so you know, measured self-cleavage for A45C U58G came out at 0.3

Just so you know, measured self-cleavage for U14A C18U came out at 0.924

Just so you know, measured self-cleavage for C10A G17C came out at 0.489

Just so you know, measured self-cleavage for A36U C38A came out at 0.0871

Just so you know, measured self-cleavage for U2A A23U came out at 0.167

Just so you know, measured self-cleavage for G27A A35C came out at 0.485

Just so you know, measured self-cleavage for C4G A45G came out at 0.274

Just so you know, measured self-cleavage for U8A C50A came out at 0.158

Just so you know, measured self-cleavage for G1A C6U came out at 0.195

Just so you know, measured self-cleavage for A59G U60A came out at 0.164

Just so you know, measured self-cleavage for A30C C65A came out at 0.0386

Just so you know, measured self-cleavage for U60A U63G came out at 0.136

Just so you know, measured self-cleavage for C6A C10U came out at 0.371

Just so you know, measured self-cleavage for A31U U33G came out at 0.143

Just so you know, measured self-cleavage for C16U A45C came out at 0.066

Just so you know, measured self-cleavage for C18A A64U came out at 0.158

Just so you know, measured self-cleavage for G15A G21A came out at 0.831

Just so you know, measured self-cleavage for U2A G29A came out at 0.0918

Just so you know, measured self-cleavage for U7A A24U came out at 1.15

Just so you know, measured self-cleavage for A41C U52A came out at 1.17

Just so you know, measured self-cleavage for A11U U20G came out at 0.907

Just so you know, measured self-cleavage for C37A A39U came out at 0.0999

Just so you know, measured self-cleavage for G40A C65U came out at 0.435

Just so you know, measured self-cleavage for U60A A71U came out at 0.616

Just so you know, measured self-cleavage for U33G G69C came out at 0.038

Just so you know, measured self-cleavage for A22G A26U came out at 0.528

Just so you know, measured self-cleavage for A30G U67A came out at 0.215
